Measurement description: Pharmacokinetics: plasma concentration after oral administration to rats
Assay type: in vivo, rat
Condition set: Crl:CD(SD) (Sprague-Dawley), male rat (Crl: CD (SD)), 10 mg/kg, plasma
Measured endpoint: Cmax (nM)

P: CC1=C(CCCCCCCCCCCCCCCO)C(C)(C)CCC1=O [Compound 4, reference compound]
Q: COCCCCCCCCCCCCCCCC1=C(C)C(=O)CCC1(C)C
Input: Hi there, can you help? I need to know whether P or Q has lower measured Cmax. Answer by quoting the chosen item's label.
Output: P

====

Reported values of viability at 1 µM for individual entries
Test system: ND3 neuronal cell line
Measurement description: Measurement of nerve growth stimulation effect (neurite bearing assay, neurite length assay, number of cells)
Assay type: cell-based
Condition set: 1 μM; 6 hours; relative cell number, DMSO well = 1
Field format: number, assumed %, no unit text.

Reference set (5 entries):
[[record]]
smiles = "CC1=C(CCCCCCCCCCCCCCCOC(=O)c2ccccc2)C(C)(C)CCC1=O"
measured_endpoint = "viability at 1 µM"
units = "%"
endpoint_value = 91

[[record]]
smiles = "COCCCCCCCCCCCCCCCC1=C(I)C(=O)CCC1(C)C"
measured_endpoint = "viability at 1 µM"
units = "%"
endpoint_value = 94

[[record]]
smiles = "CCCOCCCCCCCCCCCCCC1=C(C)C(=O)CCC1(C)C"
measured_endpoint = "viability at 1 µM"
units = "%"
endpoint_value = 98

[[record]]
smiles = "CCNC(=O)OCCCCCCCCCCCCCCCC1=C(C)C(=O)CCC1(C)C"
measured_endpoint = "viability at 1 µM"
units = "%"
endpoint_value = 94

[[record]]
smiles = "COCCCCCCCCCCCCCCCC1=C(C)C(=O)CCC12CC2"
measured_endpoint = "viability at 1 µM"
units = "%"
endpoint_value = 83


Input: Request the reported viability at 1 µM associated with CC1=C(CCCCCCCCCCCCCCCOCc2ccccc2)C(C)(C)CCC1=O
Output: 105

Input: Continue with CC1=C(CCCCCCCCCCCCCCCOC(F)(F)F)C(C)(C)CCC1=O
Output: 96

Input: Continue with CC1=C(CCCCCCCCCCCCCCC(N)=O)C(C)(C)CCC1=O
Output: 92

Input: Continue with CCOCCCCCCCCCCCCCCCCC1=C(C)C(=O)CCC1(C)C
Output: 88

====

Tested on: ND3 neuronal cell line
Measurement description: Measurement of nerve growth stimulation effect (neurite bearing assay, neurite length assay, number of cells)
Assay type: cell-based
Condition set: 1 μM; 6 hours; relative cell number, DMSO well = 1
Measured endpoint: viability at 1 µM (%)
Field format: number, assumed %, no unit text.

Reference set (6 entries):
[[record]]
molecule = "CC1=C(CCCCCCCCCCCCCCCO)C(C)(C)CCC1=O [Compound 4, reference compound]"
endpoint_value = 103

[[record]]
molecule = "CC1=C(CCCCCCCCCCCCCCCOC2CCCCO2)C(C)(C)CCC1=O (stereo not drawn) [Compound 6, reference compound]"
endpoint_value = 97

[[record]]
molecule = "COCCCCCCCCCCCCCCCC1=C(C)C(=O)C=CC1(C)C"
endpoint_value = 110

[[record]]
molecule = "CC1=C(CCCCCCCCCCCCCCCCOC(C)C)C(C)(C)CCC1=O"
endpoint_value = 99

[[record]]
molecule = "COCCCCCCCCCCCCCCCC1=C(COC)C(=O)CCC1(C)C"
endpoint_value = 86

[[record]]
molecule = "CC1=C(CCCCCCCCCCCCCCOC(C)C)C(C)(C)CCC1=O"
endpoint_value = 103


Input: Request the reported viability at 1 µM associated with CC1=C(CCCCCCCCCCCCO)C(C)(C)CCC1=O [Compound 1, reference compound]
Output: 103

Input: Continue with CCOCCCCCCCCCCCCCCC1=C(C)C(=O)CCC1(C)C
Output: 114

Input: Continue with CC1=C(CCCCCCCCCCCCCCO)C(C)(C)CCC1=O [Compound 3, reference compound]
Output: 98

====

System: ND3 neuronal cell line
Measurement description: Measurement of nerve growth stimulation effect (neurite bearing assay, neurite length assay, number of cells)
Type: cell-based
Condition set: 3 μM; 6 hours; relative cell number, DMSO well = 1
Description: To evaluate the nerve growth stimulation effect, neurite bearing assay (proportion of neurite-bearing cells) and neurite length assay (neurite length) were analyzed with reference to the method of Topalli et al. (Brain Research 1030 (2004), pp. 116-124). An ND3 neuronal cell line (European Collection of Authenticated Cell Cultures) was seeded in a DMEM medium containing 10% fetal bovine serum (0.6×10^4 cells/1 mL) in a 24-well plate. […]
Measured endpoint: viability at 3 µM (%)
Field format: number, assumed %, no unit text.

[[record]]
compound = "COCCCCCCCCCCCCCCCC1=C(C)C(=O)CCC1(C)C"
measured_endpoint = "viability at 3 µM"
endpoint_value = 101

[[record]]
compound = "[2H]C([2H])(CCCCCCCCCCCCCCC1=C(C)C(=O)CCC1(C)C)OC"
measured_endpoint = "viability at 3 µM"
endpoint_value = 86

[[record]]
compound = "COC(C)(C)CCCCCCCCCCCCCCC1=C(C)C(=O)CCC1(C)C"
measured_endpoint = "viability at 3 µM"
endpoint_value = 93

[[record]]
compound = "CC1=C(CCCCCCCCCCCCCCCOc2ccccc2)C(C)(C)CCC1=O"
measured_endpoint = "viability at 3 µM"
endpoint_value = 103

[[record]]
compound = "COC(C)(C)CCCCCCCCCCCCCCC1=C(C)C(O)CCC1(C)C (stereo not shown)"
measured_endpoint = "viability at 3 µM"
endpoint_value = 91


Input: Request the reported viability at 3 µM associated with CC1=C(CCCCCCCCCCCCCO)C(C)(C)CCC1=O [Compound 2, reference compound]
Output: 102

Input: Continue with CCCCOCCCCCCCCCCCCCC1=C(C)C(=O)CCC1(C)C
Output: 110

====

Test system: ND3 neuronal cell line
Measurement description: Measurement of nerve growth stimulation effect (neurite bearing assay, neurite length assay, number of cells)
Assay type: cell-based
Condition set: 10 μM compound; ND3 cells, 6 h; relative cell number, DMSO well = 1
Measured endpoint: Number of cells

[[record]]
molecule = "COCCCCCCCCCCCCCCCC1=C(C)C(N)CCC1(C)C (stereo not shown)"
endpoint_value = 0.79

[[record]]
molecule = "CC1=C(CCCCCCCCCCCCCCC(N)=O)C(C)(C)CC1=O"
endpoint_value = 0.73

[[record]]
molecule = "CCCOCCCCCCCCCCCCC1=C(C)C(=O)CC1(C)C"
endpoint_value = 0.79

[[record]]
molecule = "CCOCCCCCCCCCCCCCCC1=C(C)C(=O)CC1(C)C"
endpoint_value = 0.82

[[record]]
molecule = "COCCCCCCCCCCCCCCCC1=C(C)CCCC1(C)C"
endpoint_value = 0.88

[[record]]
molecule = "COCCCCCCCCCCCCCCC1=C(C)C(=O)CC1(C)C"
endpoint_value = 0.80

[[record]]
molecule = "CCCC1=C(CCCCCCCCCCCCCCCOC)C(C)(C)CCC1=O"
endpoint_value = 0.77

[[record]]
molecule = "COCCCCCCCCCCCCCCCC1=C(C(C)C)C(=O)CCC1(C)C"
endpoint_value = 0.78

[[record]]
molecule = "COCCCCCCCCCCCCCCCC1C(C)C(=O)CCC1(C)C (stereo not shown)"
endpoint_value = 0.91

[[record]]
molecule = "COCCCCCCCCCCCCCCCC1=C(C)/C(=N/OC)CCC1(C)C"
endpoint_value = 0.71


====

System: ND3 neuronal cell line
Measurement description: Measurement of nerve growth stimulation effect (neurite bearing assay, neurite length assay, number of cells)
Assay type: cell-based
Condition set: 10 μM; 6 hours; relative cell number, DMSO well = 1
Measured endpoint: viability at 10 µM (%)
Field format: number, assumed %, no unit text.

[[record]]
molecule = "COCCCCCCCCCCCCCCCC1=CC(=O)CCC1 [Compound 37]"
units = "%"
endpoint_value = 89

[[record]]
molecule = "CC1=C(CCCCCCCCCCCCCCCOC(C)C)C(C)(C)CCC1=O [Compound 26]"
units = "%"
endpoint_value = 90

[[record]]
molecule = "CCCCOCCCCCCCCCCCCCC1=C(C)C(=O)CCC1(C)C [Compound 20]"
units = "%"
endpoint_value = 90

[[record]]
molecule = "COCCCCCCCCCCCCCCCCC1=C(C)C(=O)CCC1(C)C [Compound 29]"
units = "%"
endpoint_value = 92


Input: I'm curious: which viability at 10 µM was measured for CCOC(=O)OCCCCCCCCCCCCCCCC1=C(C)C(=O)CCC1(C)C [Compound 57] tested on ND3 neuronal cell line?
Output: 90

====

Test system: ND3 neuronal cell line
Measurement description: Measurement of nerve growth stimulation effect (neurite bearing assay, neurite length assay, number of cells)
Format: cell-based
Condition set: 1 μM; 6 hours; relative cell number, DMSO well = 1
Reported values of viability at 1 µM for individual entries
Field format: number, assumed %, no unit text.

Reference set (10 entries):
[[record]]
compound = "COCCCCCCCCCCCCCCCC1=CC(=O)CCC1 [Compound 37]"
measured_endpoint = "viability at 1 µM"
endpoint_value = 99

[[record]]
compound = "CC1=C(CCCCCCCCCCCCCCC#N)C(C)(C)CCC1=O [Compound 34]"
measured_endpoint = "viability at 1 µM"
endpoint_value = 106

[[record]]
compound = "CNC(=O)CCCCCCCCCCCCCCC1=C(C)C(=O)CCC1(C)C [Compound 33]"
measured_endpoint = "viability at 1 µM"
endpoint_value = 92

[[record]]
compound = "COCCCCCCCCCCCCCC1=C(C)C(=O)CCC1(C)C [Compound 16]"
measured_endpoint = "viability at 1 µM"
endpoint_value = 89

[[record]]
compound = "COCCCCCCCCCCCCCCCC1=CC(=O)CCC1(C)C [Compound 39]"
measured_endpoint = "viability at 1 µM"
endpoint_value = 83

[[record]]
compound = "CCCOCCCCCCCCCCCCC1=C(C)C(=O)CCC1(C)C [Compound 14]"
measured_endpoint = "viability at 1 µM"
endpoint_value = 98

[[record]]
compound = "[2H]C([2H])(CCCCCCCCCCCCCCC1=C(C)C(=O)CCC1(C)C)OC [Compound 28]"
measured_endpoint = "viability at 1 µM"
endpoint_value = 92

[[record]]
compound = "CC1(C)CCC(=O)C=C1CCCCCCCCCCCCCCCO [Compound 8, reference compound]"
measured_endpoint = "viability at 1 µM"
endpoint_value = 101

[[record]]
compound = "COC(C)(C)CCCCCCCCCCCCCCC1=C(C)C(=O)CCC1(C)C [Compound 48]"
measured_endpoint = "viability at 1 µM"
endpoint_value = 85

[[record]]
compound = "CC1=C(CCCCCCCCCCCCCCCO)CCCC1=O [Compound 7, reference compound]"
measured_endpoint = "viability at 1 µM"
endpoint_value = 100


Input: Request the reported viability at 1 µM associated with CNC(=O)OCCCCCCCCCCCCCCCC1=C(C)C(=O)CCC1(C)C [Compound 55]
Output: 105

Input: Continue with COCCCCCCCCCCCCC1=C(C)C(=O)CCC1(C)C [Compound 11]
Output: 96

Input: Continue with CC1=C(CCCCCCCCCCCCCCCCO)C(C)(C)CCC1=O [Compound 5, reference compound]
Output: 111

Input: Continue with COCCCCCCCCCCCCCCCCC1=C(C)C(=O)CCC1(C)C [Compound 29]
Output: 107

Input: Continue with CCOCCCCCCCCCCCCCCCC1=C(C)C(=O)CCC1(C)C [Compound 25]
Output: 97

Input: Continue with COCCCCCCCCCCCCCCC1=C(C)C(=O)CCC1(C)C [Compound 21]
Output: 104

Input: Continue with CC1=C(CCCCCCCCCCCCCOC(C)C)C(C)(C)CCC1=O [Compound 18]
Output: 116

Input: Continue with CC1=C(CCCCCCCCCCCCCCCOC(N)=O)C(C)(C)CCC1=O [Compound 35]
Output: 94
